# System Under Test: human IL-21R expressed on cells (human, UniProt Q9HBE5 20-538)
# Sequence (Q9HBE5 20-538 limits assumed): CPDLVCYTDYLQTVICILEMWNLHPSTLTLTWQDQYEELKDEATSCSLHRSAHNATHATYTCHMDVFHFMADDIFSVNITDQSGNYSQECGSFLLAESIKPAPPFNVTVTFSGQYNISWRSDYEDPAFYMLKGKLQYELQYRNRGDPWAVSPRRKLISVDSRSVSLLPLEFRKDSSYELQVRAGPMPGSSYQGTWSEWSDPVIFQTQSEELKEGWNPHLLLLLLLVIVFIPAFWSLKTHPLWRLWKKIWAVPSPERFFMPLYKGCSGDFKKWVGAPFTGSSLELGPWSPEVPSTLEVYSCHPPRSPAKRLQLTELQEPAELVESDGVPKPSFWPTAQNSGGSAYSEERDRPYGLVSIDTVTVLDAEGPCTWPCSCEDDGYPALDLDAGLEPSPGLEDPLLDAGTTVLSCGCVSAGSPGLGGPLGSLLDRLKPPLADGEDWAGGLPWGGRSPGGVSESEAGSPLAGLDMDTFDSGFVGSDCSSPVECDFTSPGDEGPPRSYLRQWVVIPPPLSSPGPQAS
# Protocol: cell-based or functional assay
What Human IL-21R-TF1 Proliferation IC50 was measured for each of the following?
API: value field is a number in nM; no unit string.

Record request: Human IL-21R-TF1 Proliferation IC50 value, item AbD (antibody, IgG1, V domains shown, As for AbA: IgG1/lambda, CDR3 graft, residue limits derived; also called VHP/VL13) VH: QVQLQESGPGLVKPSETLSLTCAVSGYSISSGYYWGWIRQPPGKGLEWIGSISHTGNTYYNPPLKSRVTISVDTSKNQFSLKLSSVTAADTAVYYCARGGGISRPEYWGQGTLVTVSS VL: SSELTQDPAVSVALGQTVRITCQGDSLRTYYASWYQQKPGQAPVLVIYGKHKRPSGIPDRFSGSSSGNTASLTITGAQAEDEADYYCVTRNRYGNPHVLFGGGTQLTVL
2.67

What do you get for AbB (antibody, IgG1, V domains shown, As for AbA: IgG1/lambda, CDR3 graft, residue limits derived; also called VHP/VL3) VH: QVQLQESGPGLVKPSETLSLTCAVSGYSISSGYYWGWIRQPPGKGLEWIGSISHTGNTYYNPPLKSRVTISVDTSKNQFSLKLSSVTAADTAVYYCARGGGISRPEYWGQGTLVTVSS VL: SSELTQDPAVSVALGQTVRITCQGDSLRTYYASWYQQKPGQAPVLVIYGKHKRPSGIPDRFSGSSSGNTASLTITGAQAEDEADYYCVSRAVVGNPHVLFGGGTQLTVL ?
3.34

What do you get for AbU (antibody, human IgG1, V domains shown, CDR3 graft, residue limits derived as for m29; also called VHP/VL25; VHPTM/VL25) VH: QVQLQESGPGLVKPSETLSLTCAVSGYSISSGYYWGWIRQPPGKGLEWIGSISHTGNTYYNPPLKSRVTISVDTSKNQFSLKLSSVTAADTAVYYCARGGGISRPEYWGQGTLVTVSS VL: SSELTQDPAVSVALGQTVRITCQGDSLRTYYASWYQQKPGQAPVLVIYGKHKRPSGIPDRFSGSSSGNTASLTITGAQAEDEADYYCTTRSNKGNPHVLFGGGTQLTVL ?
3.13
